Values compiled from ChEMBL document CHEMBL1138420.

biological target: 11-beta-hydroxysteroid dehydrogenase 1 (Homo sapiens); assay: Inhibition of human 11beta-HSD1 by SPA
Sequence (P28845 whole entry): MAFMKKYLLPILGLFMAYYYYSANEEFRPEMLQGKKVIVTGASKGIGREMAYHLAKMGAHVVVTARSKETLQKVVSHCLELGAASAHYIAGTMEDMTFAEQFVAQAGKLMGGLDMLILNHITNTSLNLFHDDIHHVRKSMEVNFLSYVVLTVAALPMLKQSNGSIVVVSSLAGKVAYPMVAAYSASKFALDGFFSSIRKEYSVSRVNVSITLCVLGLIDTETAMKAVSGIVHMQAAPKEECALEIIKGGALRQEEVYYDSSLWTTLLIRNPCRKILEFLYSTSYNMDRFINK
recorded_endpoint: pIC50
Conceptually, pIC50 converts a concentration in mol/L into minus its log10.

>>> reported("CC(C)(Oc1cccc(Cl)c1)C(=O)N[C@H]1C2CC3CC1C[C@](C(=O)O)(C3)C2")
7.82
>>> reported("CC(C)(Oc1ccc(Cl)cc1)C(=O)N[C@H]1C2CC3CC1C[C@](C(=O)NCc1ccncc1)(C3)C2")
7.60
>>> reported("CC(C)(Oc1ccccc1Cl)C(=O)N[C@H]1C2CC3CC1C[C@](C(=O)NS(=O)(=O)c1ccccc1)(C3)C2")
6.30

Name the reported pIC50 value associated with the molecule CC(C)(Oc1ccccc1Cl)C(=O)N[C@H]1C2CC3CC1C[C@](C(=O)NS(C)(=O)=O)(C3)C2
7.02

Name the reported pIC50 value associated with the molecule CC(C)(Oc1ccc(Cl)cc1)C(=O)N[C@H]1C2CC3CC1C[C@](C(=O)NCc1ccc(S(N)(=O)=O)cc1)(C3)C2
7.29

Name the reported pIC50 value associated with the molecule CC(C)(Oc1ccccc1Cl)C(=O)N[C@H]1C2CC3CC1C[C@](C(=O)O)(C3)C2
8.10

Name the reported pIC50 value associated with the molecule CC(C)(Oc1ccc(Cl)cc1)C(=O)N[C@H]1C2CC3CC1C[C@](COCC(=O)O)(C3)C2
6.96

----------
experiment: Metabolic stability in mouse liver microsome after 30 mins; type: ADME; settings: liver microsomes, read-out: Stability
Entries annotated with measured remaining at 0.5 h
Give the value in % but do not write % after it.

// worked examples, remaining at 0.5 h included
>>> reported("CC(C)(Oc1ccccc1Cl)C(=O)N[C@H]1C2CC3CC1C[C@](C(=O)O)(C3)C2")
94
>>> reported("CC(C)(Oc1ccc(Cl)cc1)C(=O)N[C@H]1C2CC3CC1C[C@](C(=O)NCC(N)=O)(C3)C2")
78
>>> reported("CC(C)(Oc1ccccc1)C(=O)N[C@H]1C2CC3CC1C[C@](C(=O)O)(C3)C2")
98

Name the reported remaining at 0.5 h value associated with the compound CC(C)(Oc1ccc(Cl)cc1)C(=O)N[C@H]1C2CC3CC1C[C@](C(N)=O)(C3)C2
43

Name the reported remaining at 0.5 h value associated with the compound CC(C)(Oc1ccc(Cl)cc1)C(=O)N[C@H]1C2CC3CC1C[C@](C(=O)NCc1ccc(C(=O)NS(C)(=O)=O)cc1)(C3)C2
51

Name the reported remaining at 0.5 h value associated with the compound CC(C)(Oc1ccc(Cl)cc1)C(=O)N[C@H]1C2CC3CC1C[C@](C(=O)NCc1cncs1)(C3)C2
5

Name the reported remaining at 0.5 h value associated with the compound CC(C)(Oc1cccc(Cl)c1)C(=O)N[C@H]1C2CC3CC1C[C@](C(=O)O)(C3)C2
100

Name the reported remaining at 0.5 h value associated with the compound CC(C)(Oc1ccccc1)C(=O)N[C@H]1C2CC3CC1C[C@](C(N)=O)(C3)C2
78

----------
Recorded pIC50 values (11-beta-hydroxysteroid dehydrogenase 1 (Mus musculus, UniProt P50172)) are given below.
Conceptually, pIC50 converts a concentration in mol/L into minus its log10.

// worked examples, pIC50 included
>>> reported("CC(C)(Oc1ccc(Cl)cc1)C(=O)N[C@H]1C2CC3CC1C[C@](C(=O)O)(C3)C2")
7.15
>>> reported("CC(C)(Oc1ccccc1Cl)C(=O)N[C@H]1C2CC3CC1C[C@](C(=O)NS(=O)(=O)c1ccccc1)(C3)C2")
6.00
>>> reported("CC(C)(Oc1ccc(Cl)cc1)C(=O)N[C@H]1C2CC3CC1C[C@](C(=O)NCc1ccc(S(N)(=O)=O)cc1)(C3)C2")
7.62
>>> reported("COc1ccc(OC(C)(C)C(=O)N[C@H]2C3CC4CC2C[C@](C(N)=O)(C4)C3)cc1")
8.40
>>> reported("CC(C)(Oc1ccccc1)C(=O)N[C@H]1C2CC3CC1C[C@](C(=O)O)(C3)C2")
6.92

Name the reported pIC50 value associated with the molecule CC(C)(Oc1ccc(Cl)cc1)C(=O)N[C@H]1C2CC3CC1C[C@](C(=O)NCc1ccncc1)(C3)C2
7.85

Name the reported pIC50 value associated with the molecule CC(C)(Oc1ccccc1Cl)C(=O)N[C@H]1C2CC3CC1C[C@](C(=O)O)(C3)C2
8.10

Name the reported pIC50 value associated with the molecule CC(C)(Oc1ccc(Cl)cc1)C(=O)N[C@H]1C2CC3CC1C[C@](C(=O)NCc1ccc(-c4nnn[nH]4)cc1)(C3)C2
7.74
